Could you please report measured 8OG:A repair function score for the items listed next?
B1: library; numbered along this chain (parent)
chain: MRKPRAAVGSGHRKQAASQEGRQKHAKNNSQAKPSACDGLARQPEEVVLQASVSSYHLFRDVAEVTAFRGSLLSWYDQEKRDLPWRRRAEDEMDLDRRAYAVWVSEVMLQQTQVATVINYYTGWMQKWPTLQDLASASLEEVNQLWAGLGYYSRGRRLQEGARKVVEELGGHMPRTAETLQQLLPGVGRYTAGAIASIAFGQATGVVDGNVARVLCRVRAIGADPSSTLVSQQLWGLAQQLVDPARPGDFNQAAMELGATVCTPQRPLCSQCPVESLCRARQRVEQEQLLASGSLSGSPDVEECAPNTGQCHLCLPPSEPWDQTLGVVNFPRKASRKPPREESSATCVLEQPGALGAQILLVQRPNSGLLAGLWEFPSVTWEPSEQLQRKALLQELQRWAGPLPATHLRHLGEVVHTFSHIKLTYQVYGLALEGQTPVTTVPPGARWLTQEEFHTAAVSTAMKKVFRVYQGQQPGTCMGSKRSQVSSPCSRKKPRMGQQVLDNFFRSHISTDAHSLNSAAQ

variants of: B1; experiment: 8OG:A repair function score (normalized; synonymous = 0, nonsense = -1) (normalized log-likelihood score); higher = more repair activity (WT-like); conditions: with 8OG:A DNA repair reporter (GFP) in HEK-293 MUTYH KO cells;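 further: cells sorted at 72 h after reporter transfection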

Example entries begin here.
mutation.code | assay.metric | reported
S344W | 8OG:A repair function score | -0.0913
E275W | 8OG:A repair function score | -0.0767
D94N | 8OG:A repair function score | -0.0146

Could I get 8OG:A repair function score for every one of these entries?
1. S74E
2. S52W
3. C278L
4. T346Y

*A*
[0.00141, -0.00265, -1.1, -0.168]
